assay target: sGC enzyme (Homo sapiens, UniProt Q02108+Q02153)
Construct: incorporated into these cells detect cGMP formed by the compounds stimulating the sGC enzyme; host or cells: HEK293 cells stably expressing GloSensor 40F cGMP biosensor
Sequence (Q02153 1-619): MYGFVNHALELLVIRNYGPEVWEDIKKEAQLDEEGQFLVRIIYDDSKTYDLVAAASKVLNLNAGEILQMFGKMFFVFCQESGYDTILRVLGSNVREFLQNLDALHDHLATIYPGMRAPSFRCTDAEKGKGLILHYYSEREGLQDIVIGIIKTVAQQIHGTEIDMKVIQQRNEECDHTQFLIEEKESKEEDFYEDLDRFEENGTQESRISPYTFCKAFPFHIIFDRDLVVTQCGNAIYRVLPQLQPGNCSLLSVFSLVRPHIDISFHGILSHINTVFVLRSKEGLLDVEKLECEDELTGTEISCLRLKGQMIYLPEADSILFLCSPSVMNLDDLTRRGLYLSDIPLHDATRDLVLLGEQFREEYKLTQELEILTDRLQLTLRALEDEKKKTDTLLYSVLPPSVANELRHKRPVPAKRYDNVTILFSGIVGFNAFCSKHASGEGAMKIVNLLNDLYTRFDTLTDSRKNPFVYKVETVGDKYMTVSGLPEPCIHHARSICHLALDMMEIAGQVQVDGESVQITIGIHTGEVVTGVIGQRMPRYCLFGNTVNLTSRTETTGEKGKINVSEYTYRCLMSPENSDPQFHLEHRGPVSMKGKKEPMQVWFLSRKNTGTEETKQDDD
Sequence (Q02108 1-690): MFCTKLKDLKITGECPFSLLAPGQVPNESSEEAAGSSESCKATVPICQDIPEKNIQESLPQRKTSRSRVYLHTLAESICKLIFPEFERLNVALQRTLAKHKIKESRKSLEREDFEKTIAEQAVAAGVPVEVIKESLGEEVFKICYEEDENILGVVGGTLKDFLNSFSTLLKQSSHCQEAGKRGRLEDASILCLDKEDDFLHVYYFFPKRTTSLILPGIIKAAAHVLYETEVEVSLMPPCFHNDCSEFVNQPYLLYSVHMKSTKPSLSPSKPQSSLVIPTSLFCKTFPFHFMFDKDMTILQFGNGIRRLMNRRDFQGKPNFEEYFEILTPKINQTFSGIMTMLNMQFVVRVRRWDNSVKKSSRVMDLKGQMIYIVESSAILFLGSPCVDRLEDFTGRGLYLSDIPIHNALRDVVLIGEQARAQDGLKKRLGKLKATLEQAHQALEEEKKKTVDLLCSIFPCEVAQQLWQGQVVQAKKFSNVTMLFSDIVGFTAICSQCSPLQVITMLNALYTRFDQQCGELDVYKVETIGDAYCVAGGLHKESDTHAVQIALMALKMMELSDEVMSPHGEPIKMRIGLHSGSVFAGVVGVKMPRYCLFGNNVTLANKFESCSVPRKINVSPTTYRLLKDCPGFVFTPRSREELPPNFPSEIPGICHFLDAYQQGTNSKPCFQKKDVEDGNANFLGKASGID
measurement description: cGMP GloSensor cell-based assay, 384-well format
experimental context: HEK293 cells expressing GloSensor 40F cGMP; 10 μM DETA-NONOate; normalized to 30 μM Compound Y; compounds in Table IA; read-out: Glo-sensor AbsEC50
test readout: EC50

What EC50 appears in the records for this molecule with sGC enzyme (Homo sapiens, UniProt Q02108+Q02153)? `O=C1CCC(=O)N1Cc1n[nH]c(-c2nn(Cc3ccccc3F)c3ncccc23)n1`
100 to 1000 nM
